// data source = patent US20220378706A1

# assay method text: Single dose clinical study: plasma Compound A pharmacokinetics
# Assay type: in vivo, human
# cond: human, plasma, po, 100 mg, Elderly, single oral 100 mg; read-out: Cmax Geometric LS Means Test
experimental endpoint: Cmax (ng/mL)
Your answer should be a plain number; it is taken to be in ng/mL.

Ask | Could you share which Cmax value was measured for COc1ncc(C)c(-c2ccc3c(c2)[nH]c(=O)c2cnn([C@H]4CCOC4)c23)c1C [Compound A] ?
Reply | 543

* * *

# assay method text: Single dose clinical study: plasma Compound A pharmacokinetics
# Format: in vivo, human
# cond: human, plasma, oral, 100 mg, non-Japanese, 100 mg, with weight as covariate; read-out: AUC(O-inf) Geometric LS Means Reference
experimental endpoint: AUC (ng·h/mL)
Express it in ng·h/mL; write the number only.

Ask | What value of measured AUC is listed for COc1ncc(C)c(-c2ccc3c(c2)[nH]c(=O)c2cnn([C@H]4CCOC4)c23)c1C ?
Reply | 15200

* * *

# assay method text: Multiple ascending dose study: plasma pharmacokinetics
# Type: in vivo
# cond: human, po, 5 mg, Day 14, 5 mg QD oral, read-out: Cmax Mean (SD)
experimental endpoint: Cmax (ng/mL)
Field format: number, assumed ng/mL, no unit text.

Ask | Quick one: Cmax of COc1ncc(C)c(-c2ccc3c(c2)[nH]c(=O)c2cnn([C@H]4CCOC4)c23)c1C ?
Reply | 61.7

* * *

# assay method text: Single dose clinical study: plasma Compound A pharmacokinetics
# Format: in vivo, human
# cond: human, plasma, po, 200 mg, plasma, healthy adults (Parts A,B), single oral 200 mg, fasted; read-out: Vz/F GM
experimental endpoint: Vd/F (L)
Write it as a number; the unit L goes unstated.

Ask | What does the data say about its Vd/F? Entry: COc1ncc(C)c(-c2ccc3c(c2)[nH]c(=O)c2cnn([C@H]4CCOC4)c23)c1C
Reply | 384

* * *

# assay method text: Multiple ascending dose study: plasma pharmacokinetics
# Type: in vivo
# cond: human, po, 50 mg, Day 14, 50 mg QD oral, read-out: AUC(0-inf) Median
experimental endpoint: AUC(0-inf) (ng·h/mL)
State the answer as a number, implicitly in ng·h/mL.

Ask | # input molecule: COc1ncc(C)c(-c2ccc3c(c2)[nH]c(=O)c2cnn([C@H]4CCOC4)c23)c1C [Compound A] ; wanted: its AUC(0-inf)
Reply | 38100

* * *

# assay method text: Multiple ascending dose study: plasma pharmacokinetics
# Type: in vivo
# cond: human, po, 50 mg, Part C, 50 mg oral, read-out: Cmax GM (% CV)
experimental endpoint: Cmax (µg/mL)
Provide only the numeric value, understood in µg/mL.

Ask | Which value of Cmax has been reported for COc1ncc(C)c(-c2ccc3c(c2)[nH]c(=O)c2cnn([C@H]4CCOC4)c23)c1C in the records?
Reply | 0.594

* * *

# assay method text: Single dose clinical study Part B: CSF Compound A pharmacokinetics
# Assay type: in vivo
# cond: human, CSF and plasma, po, 400 mg, healthy adults Part B, single oral 400 mg, fasted; from AUC (0-t) or AUC (0-30 h); read-out: CSF: plasma AUC ratio (expressed as %) GM (% CV)
experimental endpoint: Kp
Output: the number by itself.

Ask | # query: Kp of entry COc1ncc(C)c(-c2ccc3c(c2)[nH]c(=O)c2cnn([C@H]4CCOC4)c23)c1C [Compound A]
Reply | 0.0279

* * *

# assay method text: Multiple ascending dose study: plasma pharmacokinetics
# Format: in vivo
# cond: human, po, 100 mg, Day 14, 100 mg QD oral, read-out: Cmax Median
experimental endpoint: Cmax (ng/mL)
Note: unit ng/mL is implicit; provide only the numeric part.

Ask | Any idea what its Cmax is? The compound is COc1ncc(C)c(-c2ccc3c(c2)[nH]c(=O)c2cnn([C@H]4CCOC4)c23)c1C
Reply | 1030

* * *

# assay method text: Single dose clinical study: plasma Compound A pharmacokinetics
# Format: in vivo, human
# cond: human, plasma, po, 1200 mg, plasma, healthy adults (Parts A,B), single oral 1200 mg, fasted; read-out: AUC(0-inf) GM
experimental endpoint: AUC(0-inf) (ng·h/mL)
Report only the number, with the unit ng·h/mL understood.

Ask | Recorded AUC(0-inf) for COc1ncc(C)c(-c2ccc3c(c2)[nH]c(=O)c2cnn([C@H]4CCOC4)c23)c1C [Compound A] , please?
Reply | 79700

* * *

# assay method text: Multiple ascending dose study: plasma pharmacokinetics
# Format: in vivo
# cond: human, po, 10 mg, Day 1, 10 mg QD oral, read-out: Cmax Mean (SD)
experimental endpoint: Cmax (ng/mL)
Just the number in ng/mL, nothing appended.

Ask | What value of measured Cmax is listed for COc1ncc(C)c(-c2ccc3c(c2)[nH]c(=O)c2cnn([C@H]4CCOC4)c23)c1C ?
Reply | 66.2

* * *

# assay method text: Multiple ascending dose study: plasma pharmacokinetics
# Assay type: in vivo
# cond: human, po, 5 mg, Day 14, 5 mg QD oral, read-out: Cmax GM (% CV)
experimental endpoint: Cmax (ng/mL)
Numeric only. Scale: ng/mL

Ask | Give the measured Cmax of COc1ncc(C)c(-c2ccc3c(c2)[nH]c(=O)c2cnn([C@H]4CCOC4)c23)c1C [Compound A] .
Reply | 58.6

* * *

# assay method text: Single dose clinical study: plasma Compound A pharmacokinetics
# Assay type: in vivo, human
# cond: human, plasma, po, 1200 mg, plasma, healthy adults (Parts A,B), single oral 1200 mg, fasted; read-out: AUC(0-72 h) GM
experimental endpoint: AUC(0-t) (ng·h/mL)
Kindly provide the numeric value in ng·h/mL only, without the unit symbol.

Ask | Reported AUC(0-t) for COc1ncc(C)c(-c2ccc3c(c2)[nH]c(=O)c2cnn([C@H]4CCOC4)c23)c1C : what is it?
Reply | 60600

* * *

# assay method text: Multiple ascending dose study: plasma pharmacokinetics
# Format: in vivo
# cond: human, po, 10 mg, Day 1, 10 mg QD oral, read-out: tmax Median
experimental endpoint: Tmax (h)
Entry rule: numbers only, all in h.

Ask | Entry COc1ncc(C)c(-c2ccc3c(c2)[nH]c(=O)c2cnn([C@H]4CCOC4)c23)c1C has what Tmax?
Reply | 2

* * *

# assay method text: Multiple ascending dose study: plasma pharmacokinetics
# Type: in vivo
# cond: human, po, 5 mg, Day 14, 5 mg QD oral, read-out: AUC(0-24 h) Mean (SD)
experimental endpoint: AUC(0-t) (ng·h/mL)
Report as a plain number; the unit ng·h/mL is understood.

Ask | Query: AUC(0-t); subject: COc1ncc(C)c(-c2ccc3c(c2)[nH]c(=O)c2cnn([C@H]4CCOC4)c23)c1C
Reply | 864

* * *

# assay method text: Single dose clinical study Parts A and C: urine Compound A pharmacokinetics
# Type: in vivo, human
# cond: human, po, 10 mg, healthy adults Part A, single oral 10 mg
experimental endpoint: CL renal (mL/min)
Write the value in mL/min as a bare number.

Ask | CL renal lookup needed for COc1ncc(C)c(-c2ccc3c(c2)[nH]c(=O)c2cnn([C@H]4CCOC4)c23)c1C , thanks.
Reply | 0.228

* * *

# assay method text: Single dose clinical study: plasma Compound A pharmacokinetics
# Format: in vivo, human
# cond: human, plasma, po, 100 mg, plasma, healthy elderly subjects (Part C), single oral 100 mg; read-out: AUC (0-inf) GM (% CV)
experimental endpoint: AUC(0-inf) (ng·h/mL)
Please give a number only; it is taken to be in ng·h/mL.

Ask | Form field: reported AUC(0-inf) of COc1ncc(C)c(-c2ccc3c(c2)[nH]c(=O)c2cnn([C@H]4CCOC4)c23)c1C
Reply | 21300

* * *

# assay method text: Multiple ascending dose study: plasma pharmacokinetics
# Format: in vivo
# cond: human, po, 50 mg, Day 1, 50 mg QD oral, read-out: Cmax Median
experimental endpoint: Cmax (ng/mL)
API: value field is a number in ng/mL; no unit string.

Ask | May I ask what Cmax has been recorded for COc1ncc(C)c(-c2ccc3c(c2)[nH]c(=O)c2cnn([C@H]4CCOC4)c23)c1C [Compound A] ?
Reply | 226

* * *

# assay method text: Single dose clinical study: plasma Compound A pharmacokinetics
# Format: in vivo, human
# cond: human, plasma, po, 10 mg, plasma, healthy adults (Parts A,B), single oral 10 mg, fasted; read-out: t1/2 Mean (converted)
experimental endpoint: half-life (h)
Give the number; h is assumed, so skip it.

Ask | If you can, please state the reported half-life value of COc1ncc(C)c(-c2ccc3c(c2)[nH]c(=O)c2cnn([C@H]4CCOC4)c23)c1C .
Reply | 33.6

* * *

# assay method text: Single dose clinical study Parts A and C: urine Compound A pharmacokinetics
# Format: in vivo, human
# cond: human, po, 100 mg, Elderly subjects Part C, single oral 100 mg
experimental endpoint: CL renal (mL/min)
Give your result in mL/min as a bare value.

Ask | Request the reported CL renal associated with COc1ncc(C)c(-c2ccc3c(c2)[nH]c(=O)c2cnn([C@H]4CCOC4)c23)c1C
Reply | 0.22
